Source listed as patent US20220195023A1.

Molecular target: (NPNA)3 (Plasmodium falciparum)
Experiment: SPR, antibody on chip
For each entry below, report its pKd value.
// pKd is dimensionless: -log10 of concentration (M)

## Task Answer with reported pKd of AB-007039 (antibody, V domains shown) VH: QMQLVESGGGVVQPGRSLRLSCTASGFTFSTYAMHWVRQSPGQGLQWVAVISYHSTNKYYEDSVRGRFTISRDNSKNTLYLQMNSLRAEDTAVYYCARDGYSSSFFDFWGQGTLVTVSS VL: DIQMTQSPSTLSASVGDRVAITCRASQSISRWLAWYQQQPGKAPKLLMSGASVLESGVPSRFSGSGSGTEFTLTISSLQPDDFATYYCQHYNSYSVTFGQGTKVEIK
## Result 6.95

## Task Answer with reported pKd of AB-007029 (antibody, V domains shown) VH: QVQLVESGGGVVQPGRSLRLSCTASGFTFSTYAMHWVRQSPGQGLQWVAVISYHSTNKYYEDSVRGRFTISRDNSKNTLYLQMNSLRAEDTAVYYCARDGYSSSFFDFWGQGTLVTVSS VL: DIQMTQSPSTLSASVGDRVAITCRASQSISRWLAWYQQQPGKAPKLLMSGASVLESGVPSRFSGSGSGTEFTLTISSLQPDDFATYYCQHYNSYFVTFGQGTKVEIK
## Result 7.95
